Biological target: T1, human programmed cell death protein 1 (hPD-1) C93S (aa 24-167) (Homo sapiens, UniProt Q15116, C93S)
T1 construct: made as a fusion with a TEV site and human Fc; the Fc was cut off with TEV protease; source: Expi293F, purified (Protein A, TEV cleavage of Fc, SEC; monomer fractions); not shown: Fc (human), C-terminal, cleaved
T1 sequence (Q15116 24-167 C93S): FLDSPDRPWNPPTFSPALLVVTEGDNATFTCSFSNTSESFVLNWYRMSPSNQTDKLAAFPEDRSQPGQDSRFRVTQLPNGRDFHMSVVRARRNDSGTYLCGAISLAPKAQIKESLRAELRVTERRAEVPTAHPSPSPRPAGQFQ
Experiment: SPR; Carterra LSA; Fab from the ammonium sulfate precipitate of the culture supernatant immobilised on a NiHC200M chip; hPD-1 (1-1024 nM) or mPD-1-Fc (4-1024 nM) as analyte, fourfold dilution series, no regeneration; HBS-EP pH 7.4, 25 °C; medians over the spots of a construct, KD = koff/kon
Details: one partner purified
Please enter Y where kon is greater than or equal to 20000 M⁻¹ s⁻¹, and N where it is lower.

The following binders have reported results that may help.
* toripalimab Fab L.L101H (Fab, V domains shown, as the heavy chain of Sm3; light chain of Sm3 with this change; numbers count from the chain's first residue; source: Brevibacillus, culture supernatant (ammonium sulfate precipitate); not shown: 6xHis, C-terminal, kept; 6xHN, C-terminal, kept) VH: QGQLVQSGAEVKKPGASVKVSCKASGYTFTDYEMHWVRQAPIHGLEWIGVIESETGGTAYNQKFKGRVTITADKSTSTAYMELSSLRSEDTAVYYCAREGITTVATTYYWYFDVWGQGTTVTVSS VL: DVVMTQSPLSLPVTLGQPASISCRSSQSIVHSNGNTYLEWYLQKPGQSPQLLIYKVSNRFSGVPDRFSGSGSGTDFTLKISRVEAEDVGVYYCFQGSHVPHTFGQGTKLEIK | N
* toripalimab Fab H.V114A (Fab, V domains shown, heavy chain of Sm3 with this change; numbers count from the chain's first residue; as the light chain of Sm3; source: Brevibacillus, culture supernatant (ammonium sulfate precipitate); not shown: 6xHis, C-terminal, kept; 6xHN, C-terminal, kept) VH: QGQLVQSGAEVKKPGASVKVSCKASGYTFTDYEMHWVRQAPIHGLEWIGVIESETGGTAYNQKFKGRVTITADKSTSTAYMELSSLRSEDTAVYYCAREGITTVATTYYWYFDAWGQGTTVTVSS VL: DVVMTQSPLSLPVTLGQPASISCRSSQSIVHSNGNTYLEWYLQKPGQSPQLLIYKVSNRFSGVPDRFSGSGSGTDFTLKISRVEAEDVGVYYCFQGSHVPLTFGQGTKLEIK | N
* toripalimab Fab L.V99N (Fab, V domains shown, as the heavy chain of Sm3; light chain of Sm3 with this change; numbers count from the chain's first residue; source: Brevibacillus, culture supernatant (ammonium sulfate precipitate); not shown: 6xHis, C-terminal, kept; 6xHN, C-terminal, kept) VH: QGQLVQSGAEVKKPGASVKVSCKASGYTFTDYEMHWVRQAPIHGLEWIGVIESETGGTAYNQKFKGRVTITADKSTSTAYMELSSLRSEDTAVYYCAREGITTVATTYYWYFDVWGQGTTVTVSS VL: DVVMTQSPLSLPVTLGQPASISCRSSQSIVHSNGNTYLEWYLQKPGQSPQLLIYKVSNRFSGVPDRFSGSGSGTDFTLKISRVEAEDVGVYYCFQGSHNPLTFGQGTKLEIK | N
* toripalimab Fab H.E52A (Fab, V domains shown, heavy chain of Sm3 with this change; numbers count from the chain's first residue; as the light chain of Sm3; source: Brevibacillus, culture supernatant (ammonium sulfate precipitate); not shown: 6xHis, C-terminal, kept; 6xHN, C-terminal, kept) VH: QGQLVQSGAEVKKPGASVKVSCKASGYTFTDYEMHWVRQAPIHGLEWIGVIASETGGTAYNQKFKGRVTITADKSTSTAYMELSSLRSEDTAVYYCAREGITTVATTYYWYFDVWGQGTTVTVSS VL: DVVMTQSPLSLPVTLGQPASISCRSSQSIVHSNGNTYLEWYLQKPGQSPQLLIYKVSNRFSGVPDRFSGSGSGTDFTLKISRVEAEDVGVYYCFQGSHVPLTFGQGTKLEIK | Y
* toripalimab Fab H.T106A (Fab, V domains shown, heavy chain of Sm3 with this change; numbers count from the chain's first residue; as the light chain of Sm3; source: Brevibacillus, culture supernatant (ammonium sulfate precipitate); not shown: 6xHis, C-terminal, kept; 6xHN, C-terminal, kept) VH: QGQLVQSGAEVKKPGASVKVSCKASGYTFTDYEMHWVRQAPIHGLEWIGVIESETGGTAYNQKFKGRVTITADKSTSTAYMELSSLRSEDTAVYYCAREGITTVAATYYWYFDVWGQGTTVTVSS VL: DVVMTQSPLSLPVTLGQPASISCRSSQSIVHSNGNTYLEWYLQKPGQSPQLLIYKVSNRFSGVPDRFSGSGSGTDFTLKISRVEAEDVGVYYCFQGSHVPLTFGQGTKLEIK | Y
* toripalimab Fab H.E33A (Fab, V domains shown, heavy chain of Sm3 with this change; numbers count from the chain's first residue; as the light chain of Sm3; source: Brevibacillus, culture supernatant (ammonium sulfate precipitate); not shown: 6xHis, C-terminal, kept; 6xHN, C-terminal, kept) VH: QGQLVQSGAEVKKPGASVKVSCKASGYTFTDYAMHWVRQAPIHGLEWIGVIESETGGTAYNQKFKGRVTITADKSTSTAYMELSSLRSEDTAVYYCAREGITTVATTYYWYFDVWGQGTTVTVSS VL: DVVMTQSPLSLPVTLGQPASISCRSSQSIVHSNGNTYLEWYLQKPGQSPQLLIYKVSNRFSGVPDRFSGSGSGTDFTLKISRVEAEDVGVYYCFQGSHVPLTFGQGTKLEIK | N
* toripalimab Fab L.P100M (Fab, V domains shown, as the heavy chain of Sm3; light chain of Sm3 with this change; numbers count from the chain's first residue; source: Brevibacillus, culture supernatant (ammonium sulfate precipitate); not shown: 6xHis, C-terminal, kept; 6xHN, C-terminal, kept) VH: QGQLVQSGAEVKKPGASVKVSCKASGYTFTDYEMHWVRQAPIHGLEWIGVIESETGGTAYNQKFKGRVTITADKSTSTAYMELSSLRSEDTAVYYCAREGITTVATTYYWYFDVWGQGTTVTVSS VL: DVVMTQSPLSLPVTLGQPASISCRSSQSIVHSNGNTYLEWYLQKPGQSPQLLIYKVSNRFSGVPDRFSGSGSGTDFTLKISRVEAEDVGVYYCFQGSHVMLTFGQGTKLEIK | N
* toripalimab Fab L.S97Y (Fab, V domains shown, as the heavy chain of Sm3; light chain of Sm3 with this change; numbers count from the chain's first residue; source: Brevibacillus, culture supernatant (ammonium sulfate precipitate); not shown: 6xHis, C-terminal, kept; 6xHN, C-terminal, kept) VH: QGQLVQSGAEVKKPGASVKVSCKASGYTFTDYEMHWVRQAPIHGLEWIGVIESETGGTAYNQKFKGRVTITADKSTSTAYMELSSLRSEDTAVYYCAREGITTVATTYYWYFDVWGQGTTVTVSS VL: DVVMTQSPLSLPVTLGQPASISCRSSQSIVHSNGNTYLEWYLQKPGQSPQLLIYKVSNRFSGVPDRFSGSGSGTDFTLKISRVEAEDVGVYYCFQGYHVPLTFGQGTKLEIK | N

Now for a further binder.
Ask | Check the entry toripalimab Fab H.F64A (Fab, V domains shown, heavy chain of Sm3 with this change; numbers count from the chain's first residue; as the light chain of Sm3; source: Brevibacillus, culture supernatant (ammonium sulfate precipitate); not shown: 6xHis, C-terminal, kept; 6xHN, C-terminal, kept) VH: QGQLVQSGAEVKKPGASVKVSCKASGYTFTDYEMHWVRQAPIHGLEWIGVIESETGGTAYNQKAKGRVTITADKSTSTAYMELSSLRSEDTAVYYCAREGITTVATTYYWYFDVWGQGTTVTVSS VL: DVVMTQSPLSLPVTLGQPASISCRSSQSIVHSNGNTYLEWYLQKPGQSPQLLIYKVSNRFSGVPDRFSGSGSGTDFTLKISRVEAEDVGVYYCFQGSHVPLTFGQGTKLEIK : does kon equal or exceed 20000 M⁻¹ s⁻¹?
Reply | N
